Conditions: siRNA; also: test system not given here
HELM strings list units from the 5' end as sugar, base in round brackets, then linkage (d deoxyribose, r ribose, m 2'-O-methyl, p phosphodiester). Strings are as the collection lists them, not checked against the first reports. ss, as = sense and antisense strand; [lna] = locked nucleic acid (LNA)
quantity kind: target mRNA knockdown

INSERT INTO measurements (substance, value_reported) VALUES
  ('RNA1{r(C)p.r(G)p.r(A)p.r(G)p.r(U)p.r(G)p.r(U)p.r(C)p.r(U)p.r(A)p.r(A)p.r(C)p.r(G)p.r(G)p.r(G)p.r(A)p.r(G)p.r(C)p.r(C)p.r(T)p.r(T)}|RNA2{r(G)p.r(G)p.r(C)p.r(U)p.r(C)p.r(C)p.r(C)p.r(G)p.r(U)p.m(U)p.r(A)p.r(G)p.r(A)p.r(C)p.r(A)p.r(C)p.r(U)p.r(C)p.r(G)p.r(T)p.r(T)}$$$RNA1{StrandType:ss}|RNA2{StrandType:as}$', '68%'),
  ('RNA1{[lna](T)p.r(C)p.r(C)p.r(A)p.r(G)p.r(A)p.r(A)p.r(C)p.r(A)p.r(A)p.r(A)p.r(G)p.r(G)p.r(A)p.r(A)p.r(A)p.r(C)p.r(G)p.r(G)p.[lna](T)p.[lna](T)}|RNA2{r(C)p.r(C)p.r(G)p.r(U)p.r(U)p.r(U)p.r(C)p.r(C)p.r(U)p.r(U)p.r(U)p.r(G)p.r(U)p.r(U)p.r(C)p.r(U)p.r(G)p.r(G)p.r(A)p.r(T)p.r(T)}$$$RNA1{StrandType:ss}|RNA2{StrandType:as}$', '50%'),
  ('RNA1{r(G)p.r(A)p.r(C)p.r(A)p.r(A)p.r(G)p.r(G)p.r(G)p.r(A)p.r(A)p.r(G)p.r(G)p.r(U)p.m(U)p.r(A)p.r(G)p.r(C)p.r(C)p.r(U)p.r(T)p.r(T)}|RNA2{r(A)p.r(G)p.r(G)p.r(C)p.m(U)p.r(A)p.r(A)p.r(C)p.r(C)p.r(U)p.r(U)p.r(C)p.r(C)p.r(C)p.r(U)p.r(U)p.r(G)p.r(U)p.r(C)p.r(T)p.r(T)}$$$RNA1{StrandType:ss}|RNA2{StrandType:as}$', '72%');

###

Conditions: siRNA
HELM strings list units from the 5' end as sugar, base in round brackets, then linkage (d deoxyribose, r ribose, m 2'-O-methyl, p phosphodiester). Strings are as the collection lists them, not checked against the first reports. ss, as = sense and antisense strand; [hna] = hexitol nucleic acid; [fl2r] = 2'-fluoro
quantity kind: target mRNA knockdown (%)

INSERT INTO measurements (substance, quantity_kind, value_reported) VALUES
  ('RNA1{m(A)p.r(G)p.m(G)p.r(A)p.m(C)p.r(G)p.m(G)p.r(U)p.m(A)p.r(C)p.m(U)p.r(U)p.m(U)p.r(C)p.m(G)p.r(A)p.m(A)p.r(A)p.m(G)p.r(T)p.r(T)}|RNA2{r(C)p.m(U)p.m(U)p.m(U)p.r(C)p.r(G)p.r(A)p.r(A)p.r(A)p.r(G)p.m(U)p.r(A)p.r(C)p.r(C)p.r(G)p.m(U)p.r(C)p.r(C)p.m(U)p.r(T)p.r(T)}$$$RNA1{StrandType:ss}|RNA2{StrandType:as}$', 'target mRNA knockdown', 17),
  ('RNA1{r(G)p.r(A)p.r(C)p.r(G)p.[hna](U)p.r(A)p.r(A)p.[hna](A)p.r(C)p.r(G)p.[hna](G)p.r(C)p.r(C)p.[hna](A)p.r(C)p.r(A)p.r(A)p.r(G)p.[hna](U)p.[hna](U)p.d(T)}|RNA2{r(A)p.r(C)p.r(U)p.r(U)p.r(G)p.r(U)p.r(G)p.r(G)p.r(C)p.r(C)p.r(G)p.r(U)p.r(U)p.r(U)p.r(A)p.r(C)p.r(G)p.r(U)p.r(C)p.r(G)p.r(C)}$$$RNA1{StrandType:ss}|RNA2{StrandType:as}$', 'target mRNA knockdown', 87.4),
  ('RNA1{[fl2r](G)p.r(C)p.[fl2r](U)p.r(G)p.[fl2r](A)p.r(A)p.[fl2r](C)p.r(U)p.[fl2r](A)p.r(G)p.[fl2r](U)p.r(C)p.[fl2r](G)p.r(A)p.[fl2r](A)p.r(A)p.[fl2r](G)p.r(A)p.[fl2r](A)p.r(T)p.r(T)}|RNA2{r(U)p.r(U)p.r(C)p.r(U)p.r(U)p.r(U)p.r(C)p.r(G)p.[fl2r](A)p.r(C)p.r(U)p.[fl2r](A)p.r(G)p.r(U)p.r(U)p.r(C)p.[fl2r](A)p.r(G)p.r(C)p.r(T)p.r(T)}$$$RNA1{StrandType:ss}|RNA2{StrandType:as}$', 'target mRNA knockdown', 49);
